The reported measurements were obtained from PubChem BioAssay (NCI).

system: BT-549 breast; test: NCI tumour cell line growth inhibition, 48 h; in the data active = GI50 below about 0.43 µM; inactive = the rest
// allowed return values: 1 (yes) = active, 0 (no) = inactive

[ask] Assay result, entry O=C1C=CC2(NN=C(c3ccccc3)N2c2ccccc2)c2cccc(O)c21 (stereo not given) — outcome?
[reply] 0 (no)

[ask] Same question for COc1ccc(C(O)c2cc3c(N)c(C(=O)Nc4ccccc4)sc3nc2C)cc1 (stereo not given) please.
[reply] 1 (yes)

[ask] Same question for `O=Cc1cn(Cc2ccccc2)c2ccccc12` please.
[reply] 0 (no)

[ask] Same question for `O=C1c2ccccc2S(=O)(=O)N1CSC(=S)N1CCOCC1` please.
[reply] 0 (no)

[ask] Same question for `NS(=O)(=O)c1ccc(N=Nc2c(O)[nH]c3ccc(Cl)cc23)cc1` please.
[reply] 0 (no)

[ask] Same question for `Cc1cccc(-n2cnc3cc(C(=O)N4CCCCC4)ccc32)c1` please.
[reply] 0 (no)

[ask] Same question for `COc1cc2nccc(Oc3ccc(NC(=O)C4(C(=O)Nc5ccc(F)cc5)CC4)cc3)c2cc1OC(=O)c1ccc(N)cc1` please.
[reply] 0 (no)

[ask] Same question for `CCCCCC[n+]1noc(N)c1-c1ccc(-c2c(N)on[n+]2CCCCCC)cc1` please.
[reply] 0 (no)

[ask] Same question for `Cn1cc(-c2csc(-c3c[nH]c4ccccc34)n2)c2cccnc21` please.
[reply] 0 (no)

[ask] Same question for `O=C(Nc1ccccc1C(=O)N/N=C(\c1ccccc1)c1ccccn1)c1ccccc1` please.
[reply] 0 (no)

---

test system: RXF 393 renal; assay: NCI tumour cell line growth inhibition, 48 h
valueType: TGI

[ask] Could you tell me which TGI is on file for `CC(C)NCCCNc1c2ccccc2nc2cccc([N+](=O)[O-])c12` ?
[reply] 0.0183 µM

[ask] Same question for `CC(=O)OCc1cc(=O)n2c([nH]c3ccccc32)c1C#N` please.
[reply] > 100 µM

[ask] Same question for Oc1ccc2c(c1)OCC1(O)Cc3cc(O)c(O)cc3C21 (stereo not given) please.
[reply] 29.7 µM

[ask] Same question for `Cc1ncc([N+](=O)[O-])n1CCNC(=O)CCC(=O)NCCCn1ccnc1[N+](=O)[O-]` please.
[reply] > 100 µM

[ask] Same question for `O=[N+]([O-])/C(C(Cl)=C(Cl)Cl)=C(\Nc1cccc2ccccc12)n1nnc2ccccc21` please.
[reply] 79.3 µM

[ask] Same question for `CCCCCCCC/C(=C\C1=C(C)C(=O)C(OC)=C(OC)C1=O)C(=O)O` please.
[reply] 44.1 µM

[ask] Same question for CCCCCCC(O)(c1ccc(F)cc1)C(CN1CCOCC1)c1ccccc1 (stereo not given) please.
[reply] 19 µM

[ask] Same question for `COc1ccc(CNc2nc3ccccc3nc2C(=O)O)cc1OC` please.
[reply] > 100 µM

[ask] Same question for `O=S(=O)(Nc1nccs1)c1ccc(Nc2nc(-c3cccs3)nc3ccc(I)cc23)cc1` please.
[reply] > 92.2 µM

[ask] Same question for CCOC(=O)C(C(=O)OCC)P(=S)(S)c1ccccc1 (stereo not given) please.
[reply] > 100 µM

[ask] Same question for `CCC(=O)NC(Nc1ccccc1F)(C(F)(F)F)C(F)(F)F` please.
[reply] > 100 µM

[ask] Same question for O=C1NC(N/N=C\C(O)C(O)C(O)C(O)CO)=N/C1=C\c1ccc(Cl)cc1 (stereo not given) please.
[reply] 25.6 µM

[ask] Same question for `COc1ccc(C2=Cc3nc2c(-c2ccccc2)c2ccc([nH]2)c(-c2ccccc2)c2nc(c(-c4ccccc4)c4ccc([nH]4)c3-c3ccccc3)C=C2)cc1` please.
[reply] > 100 µM

[ask] Same question for `Cc1ccc(C(=O)N/N=C(\N=Nc2cccc(C)c2)c2ccc(N(CCC#N)CCC#N)cc2C)cc1` please.
[reply] > 100 µM

[ask] Same question for `CC[N-]c1nnnn1CC.[Au+].c1ccc([PH+](c2ccccc2)c2ccccc2)cc1` please.
[reply] 0.801 µM

[ask] Same question for COc1cc2c(cc1OCCCCCN1CCN(CCCCCOc3cc4c(cc3OC)C(=O)C3CCC[C@H]3C=N4)CC1)N=C[C@@H]1CCCC1C2=O (stereo not given in full) please.
[reply] 7.11 µM

[ask] Same question for `O=C1c2ccccc2C(=O)c2nc3c(O)cccc3cc21` please.
[reply] > 100 µM

[ask] Same question for `CCN(CC)CCn1ncc2c(N)ncnc21` please.
[reply] > 100 µM

[ask] Same question for CC1=CC(C)C(C)N(CC2=NCCN2)c2ccccc21 (stereo not given) please.
[reply] > 89.9 µM

[ask] Same question for `CO/C(=N\N=C\c1ccccc1F)c1ccncc1` please.
[reply] > 10 µM

[ask] Same question for COC(=O)C(C)NP(=O)(OCc1ccc(Cn2cnc3c(N)ncnc32)cc1)Oc1ccccc1 (stereo not given) please.
[reply] > 100 µM

[ask] Same question for `COc1ccc2nc3c(n2c1)C(=O)C(=O)c1ccccc1-3` please.
[reply] 3.55 µM

[ask] Same question for CC(=O)OC1COC(n2nc(N)nc2C)C(OC(C)=O)C1OC(C)=O (stereo not given) please.
[reply] > 100 µM

[ask] Same question for `COc1cc2nccc(Oc3ccc(NC(=O)C4(C(=O)Nc5ccc(F)cc5)CC4)cc3)c2cc1OC(=O)c1ccc(N)cc1` please.
[reply] 1.99 µM

[ask] Same question for Cc1ccc(S(=O)(=O)C2=C([Si](C)(C)C)C3CC2[C@@H]2C4C=CC(CC4)[C@H]32)cc1 (stereo not given in full) please.
[reply] > 100 µM

[ask] Same question for `Cc1cc(S(=O)(=O)N/C(=C(\C#N)C(=O)c2ccccc2)[n+]2ccc(N(C)C)cc2)c([S-])cc1Cl` please.
[reply] > 100 µM

[ask] Same question for `CCN(CC)c1c(C(=O)/C=C/c2ccc(F)cc2)c(-c2ccccc2)nn(C)c1=O` please.
[reply] 11 µM

[ask] Same question for COc1cc(Br)c(CC2C3=C(CCN2C(=O)C2CCC2)CC2(CC3)OCCO2)cc1O (stereo not given) please.
[reply] 44.4 µM

[ask] Same question for `Cc1cccc(-n2cnc3cc(C(=O)N4CCCCC4)ccc32)c1` please.
[reply] > 100 µM

[ask] Same question for CC1(C)OCC(C2OC(OC(=O)c3ccc(C(F)(F)F)cc3)C3OC(C)(C)OC23)O1 (stereo not given) please.
[reply] > 77.5 µM

[ask] Same question for O=C(O)C(CO)N=Cc1nc(-c2ccccc2)oc1O (stereo not given) please.
[reply] > 100 µM

[ask] Same question for `COC(=O)N[C@H]1C=C[C@@H]2/C=C(C)/C=C/[C@@H](C)[C@H]([C@H](C)[C@H](O)[C@@H](C)NC(C)=O)OC(=O)/C=C/C=C(C)\C=C\[C@]2(C)C1` please.
[reply] 16.2 µM

[ask] Same question for CCOC(=O)C(C(=O)OCC)C1C=CCC2c3ccccc3COCC21 (stereo not given) please.
[reply] > 100 µM

[ask] Same question for `O=C(CCC1CCCCC1)NCc1ccc(C(=O)O)cc1` please.
[reply] > 100 µM

[ask] Same question for `N#CNC(=NCc1ccccc1)NCc1ccccc1` please.
[reply] > 89 µM

[ask] Same question for `CCCCCCCCCCCCCCCC(=O)Nc1ccn([C@@H]2O[C@H](CO)[C@@H](O)[C@@H]2C#N)c(=O)n1` please.
[reply] > 100 µM

[ask] Same question for O=C1C=CC2(NN=C(c3ccccc3)N2c2ccccc2)c2cccc(O)c21 (stereo not given) please.
[reply] 25 µM

[ask] Same question for O=c1[nH]c(=O)n(C2CC(O)C(CO)O2)cc1/C=C/Br (stereo not given) please.
[reply] > 100 µM

[ask] Same question for `CCCCc1ccc(Nc2nc3c(ncn3COCCBr)c(=O)[nH]2)cc1` please.
[reply] > 100 µM

[ask] Same question for CCOP(=O)(OCC)C(C)(CC)NC1=NC(C(F)(F)F)(C(F)(F)F)NC(=O)N1 (stereo not given) please.
[reply] > 100 µM

---

system: SNB-19 CNS; assay: NCI tumour cell line growth inhibition, 48 h
Would you mind telling me the reported TGI of each entry?

[ask] Could you tell me which TGI is on file for `NC(N)=N/N=C(\c1ccc(F)cc1)c1ccc(C(F)(F)F)cc1` ?
[reply] 14.3 µM

[ask] Same question for `CCOP(=O)(OCC)C(C)(C)OC(=O)NC(F)(F)F` please.
[reply] > 100 µM

[ask] Same question for CC1CC(c2ccccc2)Nc2nc3ccccc3n21 (centres undefined) please.
[reply] > 100 µM

[ask] Same question for `CN/N=C(/C=C/c1ccccc1)C(C)C` please.
[reply] > 100 µM

[ask] Same question for CCC(C)C1NC(=O)C(NC(=O)C(CC(C)C)N(C)C(=O)[C@@H]2C=CCN2C(=O)[C@H](C)O)C(C)OC(=O)[C@H](Cc2ccc(OC)cc2)N(C)C(=O)[C@@H]2CCCN2C(=O)[C@H](CC(C)C)NC(=O)C(C)C(=O)[C@H](C(C)C)OC(=O)CC1O (some centres undefined) please.
[reply] 0.0556 µM

[ask] Same question for `O=C([CH-]C(=O)C(F)(F)F)c1ccccc1.O=C([CH-]C(=O)C(F)(F)F)c1ccccc1.[O]=[U+2]=[O]` please.
[reply] > 100 µM

[ask] Same question for CCOC(=O)/C=C/C1OC(C)(C)OC1/C=C/C(=O)OCC (centres undefined) please.
[reply] > 100 µM

[ask] Same question for CN1C(=O)N(C)C2(O)c3ccccc3C(=O)C12O (centres undefined) please.
[reply] > 100 µM

[ask] Same question for `CN1CCN(Cc2nc3cccc4c3c([n+]2[O-])-c2ccccc2-4)CC1` please.
[reply] > 100 µM
